Assay: Serum hypouricemic effect
Type: in vivo
Details: 3 mg/kg orally, overnight fasted male CD (SD) IGS rats, 2 hours after administration
MEASURE NAME: Percent decrease in uric acid (hypouricemic effect)

[
  {
    "COMPOUND": "N#Cc1cn(-c2ccc(C(=O)O)c(O)c2)c2cc(F)c(F)cc12 [Example 3]",
    "DATA VALUE": "over 60%"
  },
  {
    "COMPOUND": "N#Cc1cn(-c2ccc(C(=O)O)c(O)c2)c2ccccc12 [Example 188]",
    "DATA VALUE": "over 60%"
  },
  {
    "COMPOUND": "N#Cc1cn(-c2ccc(C(=O)O)c(O)c2)c2cc(F)ccc12 [Example 192]",
    "DATA VALUE": "over 60%"
  },
  {
    "COMPOUND": "N#Cc1cn(-c2ccc(C(=O)O)c(O)c2)c2ccc(F)cc12 [Example 191]",
    "DATA VALUE": "over 60%"
  }
]

---

Biological target: Xanthine oxidase (from bovine milk, Sigma) (Bos taurus (Bovine))
Experiment: Xanthine oxidase inhibitory activity
Assay type: biochemical
Conditions: xanthine substrate, 10 minutes at room temperature, absorbance at 290 nm
Would you kindly list log10 IC50 for each of these molecules?
Form field - Quantity: IC50; Unit: nM; Scale: log10

Check out these entries, answers already filled in.
[
  {
    "MOLECULE": "CC(C)(C)OC(=O)NCCCOc1ccc2c(c1)c(C#N)cn2-c1ccc(C(=O)O)cc1 [Example 180]",
    "DATA VALUE": 1.46
  },
  {
    "MOLECULE": "N#Cc1cn(-c2ccc(C(=O)O)cc2)c2ccc(-c3ccc(O)c(Cl)c3)cc12 [Example 179]",
    "DATA VALUE": 0.90
  },
  {
    "MOLECULE": "N#Cc1cn(-c2ccc(C(=O)O)c(O)c2)c2cc(Cl)ccc12 [Example 190]",
    "DATA VALUE": 0.73
  },
  {
    "MOLECULE": "N#Cc1cn(-c2ccc(C(=O)O)cc2)c2ccc(CO)cc12 [Example 32]",
    "DATA VALUE": 1.96
  }
]

Count: 5. Required value per item: log10 IC50.
1. N#Cc1cn(-c2ccc(C(=O)O)c(O)c2)c2ccc(F)cc12 [Example 191]
2. N#Cc1cn(-c2ccc(C(=O)O)cc2)c2ccc(OCCCO)cc12 [Example 172]
3. COc1cccc(-c2ccc3c(c2)c(C#N)cn3-c2ccc(C(=O)O)cc2)c1 [Example 156]
4. CN(C)C(=O)c1ccc2c(c1)c(C#N)cn2-c1ccc(C(=O)O)cc1 [Example 34]
5. N#Cc1cn(-c2ccc(C(=O)O)cc2)c2ccc(-c3cccs3)cc12 [Example 158]

Ans:
1. 0.59
2. 0.90
3. 1.08
4. 1.68
5. 0.98

---

Biological target: Xanthine oxidase (from bovine milk, Sigma) (Bos taurus (Bovine), UniProt P80457)
Sequence (P80457 whole entry): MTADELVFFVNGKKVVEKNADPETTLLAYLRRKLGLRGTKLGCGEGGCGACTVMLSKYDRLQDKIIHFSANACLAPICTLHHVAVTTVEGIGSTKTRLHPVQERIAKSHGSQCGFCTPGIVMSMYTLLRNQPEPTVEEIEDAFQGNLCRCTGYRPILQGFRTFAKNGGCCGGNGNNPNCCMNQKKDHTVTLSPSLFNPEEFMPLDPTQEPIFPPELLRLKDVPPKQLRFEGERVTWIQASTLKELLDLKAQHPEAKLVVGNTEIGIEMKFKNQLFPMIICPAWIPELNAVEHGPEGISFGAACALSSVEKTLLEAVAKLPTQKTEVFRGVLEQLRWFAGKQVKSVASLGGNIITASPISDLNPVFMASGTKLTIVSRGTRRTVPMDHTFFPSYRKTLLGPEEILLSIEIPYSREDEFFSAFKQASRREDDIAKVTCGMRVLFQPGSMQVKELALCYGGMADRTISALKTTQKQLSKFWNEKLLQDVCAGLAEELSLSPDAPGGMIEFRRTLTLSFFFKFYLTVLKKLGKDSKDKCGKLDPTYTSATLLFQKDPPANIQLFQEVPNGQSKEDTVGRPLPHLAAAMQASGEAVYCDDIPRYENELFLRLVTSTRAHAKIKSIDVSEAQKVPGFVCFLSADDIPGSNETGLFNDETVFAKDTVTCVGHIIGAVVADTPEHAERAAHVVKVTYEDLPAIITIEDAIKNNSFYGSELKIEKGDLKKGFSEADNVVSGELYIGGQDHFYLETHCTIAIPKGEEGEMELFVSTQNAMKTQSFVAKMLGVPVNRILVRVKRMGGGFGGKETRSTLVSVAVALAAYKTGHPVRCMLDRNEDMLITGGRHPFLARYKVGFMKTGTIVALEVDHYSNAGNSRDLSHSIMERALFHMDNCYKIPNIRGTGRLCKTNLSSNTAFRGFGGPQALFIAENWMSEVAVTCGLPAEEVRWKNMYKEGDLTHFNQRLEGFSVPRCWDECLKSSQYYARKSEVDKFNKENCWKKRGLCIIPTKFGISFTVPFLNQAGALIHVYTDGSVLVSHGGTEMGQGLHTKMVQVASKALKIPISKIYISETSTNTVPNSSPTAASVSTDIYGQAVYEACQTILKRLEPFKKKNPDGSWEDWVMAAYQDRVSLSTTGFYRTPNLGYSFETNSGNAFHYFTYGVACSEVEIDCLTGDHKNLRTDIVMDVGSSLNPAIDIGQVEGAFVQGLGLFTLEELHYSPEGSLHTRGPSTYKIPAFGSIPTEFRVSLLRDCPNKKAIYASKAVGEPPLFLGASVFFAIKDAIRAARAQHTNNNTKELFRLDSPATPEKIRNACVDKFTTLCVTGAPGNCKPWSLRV
pIC50: −log10 of the molar value.
Would you please tag the item yes when its pIC50 is 8 or above, and no when it is below?

[
  {
    "INPUT SMILES": "CN(C)c1ccc(-c2ccc3c(c2)c(C#N)cn3-c2ccc(C(=O)O)cc2)cc1",
    "CATEGORY": "no"
  }
]

// next entry
Q: Is pIC50 at least 8? Consider `N#Cc1cn(-c2ccc(C(=O)O)c(O)c2)c2cc(F)ccc12`
Ans: yes
